The reported numbers originate from ChEMBL document CHEMBL5543083.

Catalogue of molecules with associated IC50
- subjectOfTest: Alpha-amylase (Sus scrofa domesticus, UniProt Q7M328)
- testName: Inhibition of porcine pancreatic Alpha-amylase using starch as substrate preincubated for 10 mins followed by substrate addition and measured after 15 mins by Bio-rad microplate reader analysis
- testSettings: read-out: IC50
Write the answer as a number in µM, unit excluded.

# substanceSmiles, subjectOfTest, IC50, µM
records = [
    ("O=C1S/C(=C\\c2c[nH]c3ccccc23)C(=O)N1Cc1ccccc1", "Alpha-amylase (Sus scrofa domesticus, UniProt Q7M328)", 82.2),
]

QUERY: Provide measured IC50 value, entry: COc1cc(/C=C2\SC(=O)N(Cc3cccc([N+](=O)[O-])c3)C2=O)cc(OC)c1OC
RESULT: 39.3

QUERY: Provide measured IC50 value, entry: CN(C)c1ccc(/C=C2\SC(=O)N(Cc3cccc([N+](=O)[O-])c3)C2=O)cc1
RESULT: 81.1

====

- subjectOfTest: Alpha-amylase (Sus scrofa domesticus, UniProt Q7M328)
- testName: Inhibition of porcine pancreatic Alpha-amylase using starch as substrate preincubated for 10 mins followed by substrate addition and measured after 15 mins by Bio-rad microplate reader analysis
- testSettings: read-out: IC50
assayEndpoint: IC50 (µM)
Write the answer as a number in µM, unit excluded.

Reference set (3 entries):
# substanceSmiles, IC50 (µM)
records = [
    ("COc1cc(OC)c(OC)cc1/C=C1\\SC(=O)N(Cc2cccc([N+](=O)[O-])c2)C1=O", 30.8),
    ("O=C1S/C(=C\\c2ccc(Cl)cc2)C(=O)N1Cc1cccc([N+](=O)[O-])c1", 44.7),
    ("COc1cccc(/C=C2\\SC(=O)N(Cc3cccc([N+](=O)[O-])c3)C2=O)c1OC", 79.1),
]

QUERY: Provide measured IC50 value, entry: CCOc1cc(/C=C2\SC(=O)N(Cc3cccc([N+](=O)[O-])c3)C2=O)ccc1O
RESULT: 10.2

QUERY: Provide measured IC50 value, entry: O=C1S/C(=C\c2ccc(O)cc2)C(=O)N1Cc1cccc([N+](=O)[O-])c1
RESULT: 42.9

====

- subjectOfTest: Alpha-amylase (Sus scrofa domesticus)
- Sequence (Q7M328 whole entry): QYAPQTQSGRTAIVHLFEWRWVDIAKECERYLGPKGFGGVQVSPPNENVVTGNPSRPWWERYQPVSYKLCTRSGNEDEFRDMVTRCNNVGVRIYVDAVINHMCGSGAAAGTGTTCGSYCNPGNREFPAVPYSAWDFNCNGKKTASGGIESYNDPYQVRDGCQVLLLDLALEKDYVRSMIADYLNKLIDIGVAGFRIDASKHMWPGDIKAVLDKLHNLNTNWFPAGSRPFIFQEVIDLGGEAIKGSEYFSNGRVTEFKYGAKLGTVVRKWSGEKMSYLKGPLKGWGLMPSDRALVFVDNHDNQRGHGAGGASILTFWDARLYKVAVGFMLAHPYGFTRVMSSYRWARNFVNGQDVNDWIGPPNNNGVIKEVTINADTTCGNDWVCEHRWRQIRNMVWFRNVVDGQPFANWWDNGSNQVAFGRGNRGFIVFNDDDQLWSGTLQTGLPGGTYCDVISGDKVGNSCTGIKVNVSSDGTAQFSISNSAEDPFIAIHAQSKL
- testName: Inhibition of porcine pancreatic Alpha-amylase using starch as substrate preincubated for 10 mins followed by substrate addition and measured after 15 mins by Bio-rad microplate reader analysis
- testSettings: read-out: IC50
Catalogue of molecules with associated IC50
Write the answer as a number in µM, unit excluded.

Reference set (5 entries):
# substanceSmiles, subjectOfTest, assayEndpoint, measured
records = [
    ("COc1ccc(/C=C2\\SC(=O)N(Cc3cccc([N+](=O)[O-])c3)C2=O)cc1O", "Alpha-amylase (Sus scrofa domesticus)", "IC50", 28),
    ("O=C1S/C(=C\\c2cccc(Cl)c2Cl)C(=O)N1Cc1cccc([N+](=O)[O-])c1", "Alpha-amylase (Sus scrofa domesticus)", "IC50", 30.4),
    ("COc1ccc(/C=C2\\SC(=O)N(Cc3cccc([N+](=O)[O-])c3)C2=O)cc1", "Alpha-amylase (Sus scrofa domesticus)", "IC50", 118),
    ("COc1cc(/C=C2\\SC(=O)N(Cc3cccc([N+](=O)[O-])c3)C2=O)ccc1O", "Alpha-amylase (Sus scrofa domesticus)", "IC50", 40.5),
    ("COc1ccc(/C=C2\\SC(=O)N(Cc3cccc([N+](=O)[O-])c3)C2=O)c(OC)c1", "Alpha-amylase (Sus scrofa domesticus)", "IC50", 30.2),
]

We next turn to a different molecule, shown below.
QUERY: Provide measured IC50 value, entry: O=C1S/C(=C\c2ccc(-c3ccccc3)cc2)C(=O)N1Cc1cccc([N+](=O)[O-])c1
RESULT: 82.2
